# TARGET OF ASSAY: human PAR4 (Homo sapiens, UniProt Q96RI0)
# Sequence (Q96RI0 18-385): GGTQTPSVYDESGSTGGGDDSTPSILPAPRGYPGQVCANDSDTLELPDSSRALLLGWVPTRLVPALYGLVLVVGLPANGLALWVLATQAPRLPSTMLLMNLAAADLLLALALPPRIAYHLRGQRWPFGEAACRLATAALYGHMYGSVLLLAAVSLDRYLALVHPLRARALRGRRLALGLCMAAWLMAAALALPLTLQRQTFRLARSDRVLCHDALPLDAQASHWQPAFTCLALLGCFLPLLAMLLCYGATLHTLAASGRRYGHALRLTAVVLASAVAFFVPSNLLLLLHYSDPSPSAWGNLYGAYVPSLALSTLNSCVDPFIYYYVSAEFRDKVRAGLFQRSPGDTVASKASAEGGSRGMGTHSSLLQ
# ASSAY EXPLANATION: PAR4 FLIPR assay: antagonism of agonist-peptide-induced calcium mobilization in PAR4-expressing HEK293 cells
# PROTOCOL CONDITIONS: H-Ala-Phe(4-F)-[…]NH2-induced intracellular calcium mobilization, 11-point curves
Recorded pIC50 values for a group of molecules are listed next.
Remember the convention: pIC50 equals -log10 of concentration in molar.

Consider the reported pIC50 for these molecules:
MOLECULE	TARGET OF ASSAY	TEST RESULT
COc1cccc2cc(-c3cc(C)cc4nc(OC(F)F)cnc34)oc12 [Example 41]	human PAR4 (Homo sapiens, UniProt Q96RI0)	6.40
COc1cc(C(O)C2(c3ccccc3)CC2)c2nc(-c3cc(C)cc4nc(OC)cnc34)sc2c1 (stereo not drawn) [Example 668]	human PAR4 (Homo sapiens, UniProt Q96RI0)	8.14
COC(=O)COc1cc2sc(-c3cc(C)cc4nc(OC)cnc34)nc2c(Cl)c1F [Example 287]	human PAR4 (Homo sapiens, UniProt Q96RI0)	8.07
COc1cc(C)c2nc(-c3cc(C)cc4nc(CN(C)C)cnc34)sc2c1 [Example 188]	human PAR4 (Homo sapiens, UniProt Q96RI0)	6.24

What the record says about COc1cnc2c(-c3nc4cc(F)c(O[C@@H](C)[C@@H](C)OC(=O)Nc5ccnc(C(=O)NC[C@@H](C)O)c5)cc4s3)cc(C)cc2n1 [Example 452] : pIC50 is 9.40

What the record says about COc1cnc2c(-c3nc4c(Cl)c(F)c(OC[C@H]5CNC(=O)O5)cc4s3)cc(C)cc2n1 [Example 622] : pIC50 is 6.46

What the record says about CCOCc1cnc2c(-c3nc4c(C)cc(OC)cc4s3)cc(C)cc2n1 [Example 189] : pIC50 is 6.85

What the record says about COc1cnc2c(-c3nc4c(Cl)cncc4s3)cc(C)cc2n1 [Example 151] : pIC50 is 5.70

What the record says about COc1cnc2c(-c3nc4cc(F)c(O[C@@H](C)[C@@H](C)OC(=O)Nc5cnnc(C)c5)cc4s3)cc(C)cc2n1 [Example 418] : pIC50 is 8.89

What the record says about COC(=O)Nc1cccc2nc(-c3cc(C)cc4nc(OC(F)F)cnc34)sc12 [Example 80] : pIC50 is 7.68

What the record says about COc1ccc(NC(=O)OCCOc2cc(C)c3nc(-c4cc(C)cc5nc(OC)cnc45)sc3c2)cn1 [Example 112] : pIC50 is 8.70

What the record says about Cc1cc(-c2nc3ccc(OCCNS(=O)(=O)c4ccccc4)cc3s2)c2ncc(OC(F)F)nc2c1 [Example 63] : pIC50 is 8.54

What the record says about COc1cnc2c(-c3nc4c(Cl)c(F)c(OC)cc4s3)cc(C)cc2n1 [Example 282] : pIC50 is 8.96

What the record says about COc1cnc2c(-c3nc4c(C)cc(OC)cc4s3)cc(Cl)cc2c1 [Example 626] : pIC50 is 8.14

###

Recorded pIC50 values for a group of compounds are listed next.
# TARGET OF ASSAY: human PAR4 (Homo sapiens, UniProt Q96RI0)
# ASSAY EXPLANATION: PAR4 FLIPR assay: antagonism of agonist-peptide-induced calcium mobilization in PAR4-expressing HEK293 cells
# PROTOCOL CONDITIONS: H-Ala-Phe(4-F)-[…]NH2-induced intracellular calcium mobilization, 11-point curves
Remember the convention: pIC50 equals -log10 of concentration in molar.

Consider the reported pIC50 for these compounds:
TEST SMILES	RECORDED ENDPOINT	TEST RESULT
COc1cnc2c(-c3cc4ccccc4o3)nc(C)cc2c1	pIC50	6.92
COc1cnc2c(-c3nc4c(C)c(F)c(OCCOC(=O)Nc5ccc(F)nc5)cc4s3)cc(C)cc2n1	pIC50	8.49
COCc1cnc2c(-c3nc4c(Cl)cncc4s3)cc(C)cc2n1	pIC50	8.38
COc1cnc2c(-c3nc4cc(F)c(O[C@@H](C)[C@@H](C)OC(=O)Nc5cnc(C)nc5)cc4s3)cc(Cl)cc2c1	pIC50	8.31
COc1cnc2c(-c3nc4cc(F)c(O[C@@H](C)[C@@H](C)OC(=O)Nc5ccc6[nH]c(=O)oc6c5)nc4s3)cc(C)cc2n1	pIC50	8.59
COc1cnc2c(-c3nc4cc(F)c(OCCOC(=O)Nc5ccc(C#N)nc5)nc4s3)cc(C)cc2n1	pIC50	9.22

With human PAR4 (Homo sapiens, UniProt Q96RI0) as the test system, CNC(=O)c1cc(NC(=O)O[C@H](C)[C@H](C)Oc2cc3sc(-c4cc(C)cc5nc(OC)cnc45)nc3cc2F)ccn1 showed pIC50 of 9.15

With human PAR4 (Homo sapiens, UniProt Q96RI0) as the test system, COc1cnc2c(-c3nc4cc(F)c(O[C@@H](C)[C@@H](C)OC(=O)Nc5ccc(C)nc5)cc4s3)cc(C#N)cc2n1 showed pIC50 of 8.29
